# measured_target: human GABAA α1β2γ1 receptor (Homo sapiens (Human), UniProt P14867+Q8N1C3)
# method_summary: Radioligand binding assay, competition for [3H]RO7239181, γ1-containing GABAA subtypes
# measurement_conditions: Ki h-GABAA α1β2γ1, membranes of HEK293F cells, [3H]RO7239181 20-30 nM, Table 1
assay_metric: Ki (nM)

compound="Cc1nnc2n1-c1sc3c(c1C(c1c(F)cccc1F)=N[C@H]2C)CCC[C@@H](F)C3 (single isomer, unassigned)" uom=nM reported_value=421
compound=C[C@@H]1N=C(c2c(F)cccc2F)c2c(sc3c2COCCO3)-n2nc(C(=O)NC[C@@](C)(O)C(F)(F)F)nc21 uom=nM reported_value=60
compound=Cc1nnc2n1-c1sc3c(c1C(c1c(F)cccc1F)=NC2)CCOCC3 uom=nM reported_value=246
compound=C[C@@H]1N=C(c2c(F)cccc2F)c2c(sc3c2COCCO3)-n2nc(C(=O)N3CC(F)C3)nc21 uom=nM reported_value=24.7
compound=Cc1nnc2n1-c1sc3c(c1C(c1c(F)cccc1F)=N[C@H]2C)CCCCO3 uom=nM reported_value=80.5
compound="Cc1nnc2n1-c1sc3c(c1C(c1c(F)cccc1F)=N[C@H]2C)CC[C@@H](F)CC3 (single isomer, unassigned)" uom=nM reported_value=131
compound=CCOC1CN(C(=O)c2nc3n(n2)-c2sc4c(c2C(c2c(F)cccc2F)=N[C@H]3C)COCCO4)C1 uom=nM reported_value=43.6
